Molecular target: 10 DB-1
Assay: CELIA on monoclonal 10 DB-1; coated antigen not given
pIC50: −log10 of the molar value. Where no end group is shown, it is not given here.
endpoint: pIC50

>>> measurement("Ac-ISRRLIDRTNANFLC (not fully specified; printed as Ac-25I-S-R-R-L-I-D-R-T-N-A-N-F-L38-C) [GP4]")
6.40
